- assay.method.text: DPPH assay
measured.parameter: DPPH scavenging capacity, in words

Use the examples below as a reference point.
>>> measured_result("CCCc1cc(=O)oc2c3c(c4c(c12)OC(C)(C)C=C4)O[C@H](C)[C@@H](C)C3=O [12-Oxocalanolide A]")
"inactive"
>>> measured_result("C/C=C(\\C)C(=O)c1c(OC)c2c(c3c(-c4ccccc4)cc(=O)oc13)OC(C)(C)C=C2 [Calophyllolide]")
"slightly active"
>>> measured_result("CCC(C)c1cc(=O)oc2c3c(c4c(c12)OC(C)(C)C=C4)OC(C)C(C)C3O (stereo not shown) [Tamanolide D]")
"moderately active"
>>> measured_result("CCCc1cc(=O)oc2c3c(c4c(c12)OC(C)(C)C=C4)O[C@H](C)[C@@H](C)[C@@H]3O [Calanolide A]")
"slightly active"
>>> measured_result("C=C(C)C(CC=C(C)C)CC1(CC=C(C)C)C(=O)C(C(CCC)CC(=O)O)=C(O)C2=C1O[C@H](C)[C@@H](C)C2=O (stereo partly shown)")
"moderately active"

// lookup DPPH scavenging capacity, in words for CCCc1cc(=O)oc2c3c(c4c(c12)OC(C)(C)C=C4)O[C@H](C)[C@H](C)C3=O [Calanolide D] inactive

Queued: C/C=C(\C)C(=O)c1c(OC)c2c(c3c(CCC)cc(=O)oc13)OC(C)(C)C=C2 [Calanolide GUT 70] slightly active

Queued: "C[C@@H]1C(=O)c2c(c3c(c4c(-c5ccccc5)cc(=O)oc24)OC(C)(C)C=C3)O[C@@H]1C" moderately active

Queued: "C[C@H]1Oc2c3c(c4c(-c5ccccc5)cc(=O)oc4c2C(=O)[C@@H]1C)OC(C)(C)C=C3" moderately active
